PROTOCOL_NOTES: Terminal half life in Wistar rat at 1 mg/kg, iv or 1 mg/kg, po
Assay type: ADME, organism-based
TEST_CONTEXT: in vivo, read-out: beta t1/2
ASSAY_ENDPOINT: half-life (h)
Record the value in h, omitting the unit from your answer.

stdin: Sample `Cc1cc(-c2[nH]ncc2C)c2cccc(OCc3c(C)ccnc3Cn3cccc(C(F)(F)F)c3=O)c2n1` — what was its half-life?
stdout: 1.12

###

TEST_TARGET: UniProtKB P08684
Sequence (P08684 whole entry): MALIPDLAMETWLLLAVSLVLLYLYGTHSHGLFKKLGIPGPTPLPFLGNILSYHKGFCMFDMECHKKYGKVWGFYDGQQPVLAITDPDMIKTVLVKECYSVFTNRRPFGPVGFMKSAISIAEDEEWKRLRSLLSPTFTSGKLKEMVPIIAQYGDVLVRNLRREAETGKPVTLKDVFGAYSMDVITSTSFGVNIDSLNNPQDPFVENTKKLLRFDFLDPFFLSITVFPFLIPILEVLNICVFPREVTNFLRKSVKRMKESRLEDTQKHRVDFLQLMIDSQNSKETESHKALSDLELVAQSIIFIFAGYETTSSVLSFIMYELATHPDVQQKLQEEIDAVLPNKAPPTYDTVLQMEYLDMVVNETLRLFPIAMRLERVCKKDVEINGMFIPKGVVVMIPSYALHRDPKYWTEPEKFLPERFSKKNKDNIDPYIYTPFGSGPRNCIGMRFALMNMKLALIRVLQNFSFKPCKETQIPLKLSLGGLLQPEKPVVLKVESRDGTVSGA
PROTOCOL_NOTES: Inhibition of human CYP3A4 by microtiter plate assay
Format: ADME
ASSAY_ENDPOINT: pIC50
Interpret pIC50 as the negative base-10 log of the concentration measured in mol/L.

stdin: Sample `Cc1cc(-c2ncsc2Cl)c2cccc(OCc3c(C)ccnc3Cn3cccc(C(F)(F)F)c3=O)c2n1` — what was its pIC50?
stdout: 6.52

stdin: What about this compound? `Cc1cc(-c2[nH]ncc2C)c2cccc(OCc3c(C)ccnc3Cn3cccc(C(F)(F)F)c3=O)c2n1`
stdout: 5.42

###

TEST_TARGET: B2 bradykinin receptor (Homo sapiens)
PROTOCOL_NOTES: Antagonist activity at B2 receptor in human HF15 cells assessed as inhibition of bradykinin-induced calcium mobilization
Assay type: functional, cell-based
ASSAY_ENDPOINT: pIC50
Interpret pIC50 as the negative base-10 log of the concentration measured in mol/L.

[
  {
    "COMPOUND_STRUCTURE_STRING": "Cc1cc(-c2ccnn2C)c2cccc(OCc3c(Cl)cncc3CNC(=O)N(C)C)c2n1",
    "pIC50": 8.55
  }
]

stdin: Sample `Cc1cc(-c2nccn2C)c2cccc(OCc3c(Cl)cncc3Cl)c2n1` — what was its pIC50?
stdout: 6.12

stdin: What about this compound? `Cc1cc(-c2ncnn2C)c2cccc(OCc3c(Cl)cncc3Cl)c2n1`
stdout: 5.62

stdin: What about this compound? `Cc1cc(-c2cncs2)c2cccc(OCc3c(Cl)cncc3Cl)c2n1`
stdout: 6.38

stdin: What about this compound? `Cc1cc(-c2ccnn2C)c2cccc(OCc3c(Cl)cncc3Cn3cccc(C(F)(F)F)c3=O)c2n1`
stdout: 8.85

###

TEST_TARGET: UniProt:P30411
PROTOCOL_NOTES: Displacement of [3H]bradykinin from wild-type B2 receptor
ASSAY_ENDPOINT: IC50 (nM)
Record the value in nM, omitting the unit from your answer.

stdin: Sample `Cc1cc(-c2ccnn2C)c2cccc(OCc3c(Cl)cncc3Sc3nccs3)c2n1` — what was its IC50?
stdout: 470

###

TEST_TARGET: B2 bradykinin receptor (Homo sapiens, UniProt P30411)
Sequence (P30411 whole entry): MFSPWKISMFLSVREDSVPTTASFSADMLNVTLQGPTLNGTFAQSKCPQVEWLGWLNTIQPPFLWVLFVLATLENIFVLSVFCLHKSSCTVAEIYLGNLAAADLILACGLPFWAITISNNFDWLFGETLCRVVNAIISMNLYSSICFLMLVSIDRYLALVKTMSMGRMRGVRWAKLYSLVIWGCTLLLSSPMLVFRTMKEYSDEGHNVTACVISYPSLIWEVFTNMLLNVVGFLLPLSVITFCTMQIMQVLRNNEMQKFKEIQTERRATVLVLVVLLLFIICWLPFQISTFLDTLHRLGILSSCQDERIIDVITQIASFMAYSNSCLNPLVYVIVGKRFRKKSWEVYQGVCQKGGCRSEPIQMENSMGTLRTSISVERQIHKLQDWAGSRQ
PROTOCOL_NOTES: Displacement of [3H]bradykinin from human recombinant B2 receptor expressed in HEK293 cells
Assay type: cell-based
ASSAY_ENDPOINT: IC50 (nM)
Record the value in nM, omitting the unit from your answer.

Example compounds with recorded IC50:
[
  {
    "COMPOUND_STRUCTURE_STRING": "Cc1cc(-c2ncsc2C)c2cccc(OCc3c(Cl)cncc3Cl)c2n1",
    "TEST_TARGET": "B2 bradykinin receptor (Homo sapiens, UniProt P30411)",
    "UNIT_STRING": "nM",
    "RECORDED_VALUE": 64
  },
  {
    "COMPOUND_STRUCTURE_STRING": "Cc1cc(-n2ccnc2C)c2cccc(OCc3c(Cl)cncc3Cl)c2n1",
    "TEST_TARGET": "B2 bradykinin receptor (Homo sapiens, UniProt P30411)",
    "UNIT_STRING": "nM",
    "RECORDED_VALUE": 200
  },
  {
    "COMPOUND_STRUCTURE_STRING": "Cc1cc(C)c2cccc(OCc3c(Cl)ccc(S(=O)(=O)N4CCC[C@H]4C(=O)CCCNC(=O)c4ccc(C(=N)N)cc4)c3Cl)c2n1",
    "TEST_TARGET": "B2 bradykinin receptor (Homo sapiens, UniProt P30411)",
    "UNIT_STRING": "nM",
    "RECORDED_VALUE": 0.67
  },
  {
    "COMPOUND_STRUCTURE_STRING": "Cc1cc(-c2ccnn2C)c2cccc(OCc3c(C)ccnc3CNC(=O)C3CCCCC3)c2n1",
    "TEST_TARGET": "B2 bradykinin receptor (Homo sapiens, UniProt P30411)",
    "UNIT_STRING": "nM",
    "RECORDED_VALUE": 10
  }
]

stdin: Sample `Cc1cc(-c2ccnn2C)c2cccc(OCc3c(Cl)cncc3CNC(=O)N(C)C)c2n1` — what was its IC50?
stdout: 6.6

stdin: What about this compound? `Cc1cc(-n2cccn2)c2cccc(OCc3c(Cl)cncc3Cl)c2n1`
stdout: 32

stdin: What about this compound? `Cc1cc(-c2cncn2C)c2cccc(OCc3c(Cl)cncc3Cl)c2n1`
stdout: 4400

stdin: What about this compound? `Cc1cc(-c2nccs2)c2cccc(OCc3c(Cl)cncc3Cl)c2n1`
stdout: 420
